target: Adenosine receptor A2a (Homo sapiens, UniProt P29274); test: Displacement of [3H]ZM241385 from human adenosine A2A receptor expressed in CHO cells at 1 uM by scintillation counting analysis relative to control; format: cell-based
Sequence (P29274 whole entry): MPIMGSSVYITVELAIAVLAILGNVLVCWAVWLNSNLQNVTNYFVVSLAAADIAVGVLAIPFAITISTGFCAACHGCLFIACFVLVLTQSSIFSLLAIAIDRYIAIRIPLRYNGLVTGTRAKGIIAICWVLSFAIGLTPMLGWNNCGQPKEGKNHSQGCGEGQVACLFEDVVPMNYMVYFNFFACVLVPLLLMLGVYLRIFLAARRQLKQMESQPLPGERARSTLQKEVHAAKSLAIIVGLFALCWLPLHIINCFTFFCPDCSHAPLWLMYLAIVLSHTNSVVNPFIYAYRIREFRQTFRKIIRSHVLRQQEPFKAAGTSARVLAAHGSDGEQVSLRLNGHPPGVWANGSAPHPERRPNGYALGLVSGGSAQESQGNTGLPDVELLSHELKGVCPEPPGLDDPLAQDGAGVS
Catalogue of inhibition readings, one per entry.
Please give a number only; it is taken to be in %.

Example results:
CC(C)c1nc(N)c2nn(-c3ccccc3)cc2n1 = 22
Cc1cccc(Cc2nc(N)c3nn(-c4ccccc4)cc3n2)c1 = 31
Nc1nc(Cc2cccc(Cl)c2)nc2cn(-c3ccccc3)nc12 = 6
Nc1nc(CCCc2ccc(OCc3ccccc3)cc2)nc2cn(-c3ccccc3)nc12 = 3
Nc1nc(Cc2cccc(C(F)(F)F)c2)nc2cn(-c3ccccc3)nc12 = 21

Query: # return recorded inhibition for entry `CC(C)Cc1nc(N)c2nn(-c3ccccc3)cc2n1`
Response: 50

Query: Return reported inhibition. Input molecule: `Nc1nc(CCc2ccccc2)nc2cn(-c3ccccc3)nc12`
Response: 35
